# test system: BmCSP3 (chemosensory protein 3) (Bombyx mori)
# Construct: residues 19–109 of UniProt entry Q3LBA2
# Sequence (Q3LBA2 19-127): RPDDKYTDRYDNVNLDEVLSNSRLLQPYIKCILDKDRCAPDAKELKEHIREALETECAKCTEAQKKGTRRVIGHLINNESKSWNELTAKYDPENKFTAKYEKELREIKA
# protocol: biochemical
# Design: 1-NPN fluorescence displacement binding with purified BmCSP3; Ki by Cheng-Prusoff from interpolated EC50
# measurement setup: 4 uM BmCSP3, 10 uM 1-NPN, pH 8.0, 25 °C; read-out: Ki (μΜ)
pKi: −log10 of the molar value.
readout: pKi

**Query** Output measured pKi for this item: NCCCC[C@H](N)C(=O)O
**Result** < 4.85

**Query** Output measured pKi for this item: NCC(=O)O
**Result** < 4.70

**Query** Output measured pKi for this item: NCCCC(N)C(=O)O (racemic)
**Result** < 4.70

###

Please provide measured pKi for the entries that follow.
# test system: BmCSP3 (chemosensory protein 3) (Bombyx mori, UniProt Q3LBA2)
# Construct: residues 19–109 of UniProt entry Q3LBA2
# protocol: 1-NPN fluorescence displacement binding assay with purified protein
Keep in mind that pKi stands for -log10 of concentration in molar terms.

**Query** Output measured pKi for this item: NCCc1c[nH]c2ccccc12 [Tryptamine]
**Result** 7.96

**Query** Output measured pKi for this item: O=C(O)Cc1cc(O)ccc1O [Homogentisic acid]
**Result** 5.60

**Query** Output measured pKi for this item: NCCc1c[nH]c2ccc(O)cc12 [Serotonin]
**Result** 5.74
